Biological target: RRE-Rev34-50 interaction (RRE hairpin and frevp)
Experiment: Fluorescence polarization displacement assay of the RRE-Rev34-50 interaction
Assay type: binding, HIV-1
Settings: read-out: IC50 (RRE-Rev 50% inhibitory concentration); fluorescence polarization, 25° C., 60 nM RRE and 10 nM frevp

[
  {
    "smilesRepr": "CCc1cc(-c2c(CCN)cc(OC)cc2CCN)ccc1-c1cc(CCN)c(O)c(CCN)c1",
    "endpointUnit": "µM",
    "IC50": 93.6
  },
  {
    "smilesRepr": "CCc1cc(-c2c(CCN)cc(OC)cc2CCN)ccc1-c1cc(CCN)c(OCc2ccccc2)c(CCN)c1",
    "endpointUnit": "µM",
    "IC50": 78.1
  },
  {
    "smilesRepr": "COc1cc(CCN)c(-c2ccc(-c3cc(CCN)c(O)c(CCN)c3)cc2)c(CCN)c1",
    "endpointUnit": "µM",
    "IC50": 23.4
  },
  {
    "smilesRepr": "COc1cc(CCN)c(-c2ccc(-c3cc(CCN)c(OCc4ccc(C(F)(F)F)cc4)c(CCN)c3)c(OC)c2)c(CCN)c1",
    "endpointUnit": "µM",
    "IC50": 232
  }
]

* * *

Molecular target: RRE RNA hairpin (internal loop IIB)
Assay: SPR analysis of interaction with RRE RNA hairpin
Type: binding, HIV-1
Details: 25° C., pH 6.3, high affinity site when two-site model, JB-399 and IIS-530: ligand range 0.1-25 μM, read-out: Kd(RRE)
pKd: −log10 of the molar value.
// reported pKd for each item listed

[
  {
    "smilesRepr": "COc1cc(CCN)c(-c2ccc(-c3cc(CCN)c(OCc4ccccc4)c(CCN)c3)c(OC)c2)c(CCN)c1",
    "limitOperator": "=",
    "pKd": 5.03
  },
  {
    "smilesRepr": "COc1cc(CCN)c(-c2ccc(-c3cc(CCN)c(OCC4CCCCC4)c(CCN)c3)c(OC)c2)c(CCN)c1",
    "limitOperator": "=",
    "pKd": 4.34
  },
  {
    "smilesRepr": "COc1cc(CCN)c(-c2ccc(-c3cc(CCN)c(O)c(CCN)c3)c(OC)c2)c(CCN)c1",
    "limitOperator": "=",
    "pKd": 4.89
  },
  {
    "smilesRepr": "COc1cc(CCN)c(-c2ccc(-c3cc(CCN)c(O)c(CCN)c3)cc2)c(CCN)c1",
    "limitOperator": "=",
    "pKd": 4.84
  },
  {
    "smilesRepr": "COc1cc(CCN)c(-c2c(CCN)cc(OC)cc2CCN)c(CCN)c1",
    "limitOperator": "<",
    "pKd": 4.00
  },
  {
    "smilesRepr": "COc1cc(CCN)c(-c2cc(CCN)c(O)c(CCN)c2)c(CCN)c1",
    "limitOperator": "=",
    "pKd": 4.51
  }
]

* * *

Molecular target: RRE-Rev34-50 interaction (RRE hairpin and frevp)
Assay: Fluorescence polarization displacement assay of the RRE-Rev34-50 interaction
Type: binding, HIV-1
Conditions: read-out: IC50 (RRE-Rev 50% inhibitory concentration); fluorescence polarization, 25° C., 60 nM RRE and 10 nM frevp
Reported IC50 values for a set of compounds

[
  {
    "compound": "COc1cc(CCN)c(-c2ccc(-c3cc(CCN)c(OCc4ccccc4)c(CCN)c3)c(OC)c2)c(CCN)c1 [IIS-311]",
    "IC50 (µM)": 162
  },
  {
    "compound": "CCc1cc(-c2c(CCN)cc(OC)cc2CCN)cc(CC)c1-c1cc(CCN)c(O)c(CCN)c1 [IIS-806]",
    "IC50 (µM)": 56.4
  },
  {
    "compound": "COc1cc(CCN)c(-c2c(CCN)cc(OC)cc2CCN)c(CCN)c1 [SC-30]",
    "IC50 (µM)": 309
  }
]

Reference source: patent US9586943B2
